Biological target: T1, S. aureus gamma-hemolysin component B (HlgB) (Staphylococcus aureus, UniProt P0A075 27-325)
T1 sequence: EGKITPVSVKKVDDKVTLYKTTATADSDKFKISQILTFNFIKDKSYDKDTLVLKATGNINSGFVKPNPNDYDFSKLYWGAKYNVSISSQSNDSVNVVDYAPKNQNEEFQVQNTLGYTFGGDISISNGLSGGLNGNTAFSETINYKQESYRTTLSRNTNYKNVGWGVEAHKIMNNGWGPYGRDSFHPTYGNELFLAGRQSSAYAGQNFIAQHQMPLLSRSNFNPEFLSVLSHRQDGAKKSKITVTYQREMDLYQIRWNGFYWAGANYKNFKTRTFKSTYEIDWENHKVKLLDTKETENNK
Assay: BLI, biotinylated VHH on streptavidin sensor, HlgB in solution
For each entry below, report its Kd value.
Reply numerically in pM, unit not repeated.

Task: May I ask what Kd has been recorded for Bm29F05 (VHH) VHH: QVQLVESGGGLVQPGGSLRLSCTASGVSLYDFAVGWWRQAPGKEREGVSCTSSRDRSEYYRDSVKGRFTIVRDNLKNTIYLQMDSLTIEDTAVYFCAADSQPYPCSLGSLERYDSWGQGIQVTVSS ?
Output: 20

Task: Name the recorded Kd for Bm29E06 (VHH) VHH: QVQLVESGGGLVQPGGSLRLSCTASGVSLYDFAVGWFRQAPGKEREGVSCSSSRDRSEYYRDSVKGRFDIVRDNLKNIIYLQMDNLTIEDTAVYFCAADSQPYPCSLGSLERYDSWGQGTQVTVSS .
Output: 30
